# Test system: HOP-92 NSCLC
# experiment: NCI tumour cell line growth inhibition, 48 h; in the data active = GI50 below about 0.43 µM; inactive = the rest
Pick one: TRUE = active, FALSE = inactive

// return assay outcome for `CCCOC(=O)N[C@H]1CCc2cc(OC)c(OC)c(OC)c2-c2ccc(SC)c(=O)cc21`
TRUE

And then C=C1C(=O)O[C@@H]2OC3(C)CCC4C(C)CCC1C42OO3 (some centres undefined) , what is it?
FALSE

And then `CC(=O)OC(C)(C)/C=C/C(=O)[C@](C)(O)[C@H]1[C@H](O)C[C@@]2(C)[C@@H]3CC=C4[C@@H](C[C@H](O)C(=O)C4(C)C)[C@]3(CO)C(=O)C[C@]12C` , what is it?
TRUE

Now examine the next entry.
// return assay outcome for `O=C(NCCN1CCC(O)CC1)c1cc2c(o1)C(=O)c1ccccc1C2=O`
FALSE
